ASSAYED_TARGET: T1, recombinant human VTCN1-his protein (human, UniProt Q7Z7D3 25-259, limits assumed)
T1 construct: also called human VTCN1 protein; recombinant VTCN1
T1 sequence: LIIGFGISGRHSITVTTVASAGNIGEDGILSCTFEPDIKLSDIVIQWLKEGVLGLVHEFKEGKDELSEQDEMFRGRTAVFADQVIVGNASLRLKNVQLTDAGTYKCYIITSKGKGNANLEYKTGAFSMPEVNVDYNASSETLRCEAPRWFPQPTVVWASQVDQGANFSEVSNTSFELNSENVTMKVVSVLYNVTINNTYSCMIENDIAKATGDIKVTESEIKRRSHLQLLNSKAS
ASSAY_NOTES: BLI (OCTET), human VTCN1 protein
TEST_READOUT: pKd
Scale explanation: pKd corresponds to minus log10 of a concentration expressed in moles per litre.

Which pKd value belongs to hu6D9_57A5 (antibody, V domains shown, Humanized 6D9) VH: QVQLVESGGGVVQPGRSLRLSCAVSGFSLTSYGVQWVRQAPGKGLEWLAVIWSSGSTDYNAAFLSRLTISKDNSKNTVYFQMNSLRAEDTAVYYCARDVTTIVEGFAHWGQGTLVTVSS VL: DIQMTQSPSSLSASVGDRVTITCKASEKVGTYVSWYQQKPGKAPKLLIYGASNRYTGVPSRFSGSGSGTDFTLTISSLQPEDFATYYCGQTYSYPFTFGQGTKLEIK ?
7.44

Which pKd value belongs to hu6D9_57A4 (antibody, V domains shown, Humanized 6D9) VH: QVQLVESGPGVVQPGRSLRLSCAVSGFSLTSYGVQWVRQAPGKGLEWLAVIWSSGSTDYNAAFLSRLTISKDNSKSTVYFQMNSLRAEDTAVYYCARDVTTIVEGFAHWGQGTLVTVSS VL: DIQMTQSPSSLSASVGDRVTITCKASEKVGTYVSWYQQKPGKAPKLLIYGASNRYTGVPSRFSGSGSGTDFTLTISSLQPEDFATYYCGQTYSYPFTFGQGTKLEIK ?
7.44

Which pKd value belongs to hu6D9_57A3 (antibody, V domains shown, Humanized 6D9) VH: QVQLVESGGGVVQPGRSLRLSCAVSGFSLTSYGVQWVRQAPGKGLEWLGVIWSSGSTDYNAAFLSRLTISKDNSKNTVYFQMNSLRAEDTAVYYCARDVTTIVEGFAHWGQGTLVTVSS VL: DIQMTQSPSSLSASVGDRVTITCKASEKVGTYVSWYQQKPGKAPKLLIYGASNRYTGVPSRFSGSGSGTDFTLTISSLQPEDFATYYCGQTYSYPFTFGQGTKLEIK ?
7.55

Which pKd value belongs to hu6D9_66C2 (antibody, V domains shown, Humanized 6D9) VH: EVQLVESGGGLVQPGGSLRLSCAVSGFSLTSYGVQWVRQAPGKGLEWLGVIWSSGSTDYNAAFLSRLTISKDTSKNTVYFQMNSLRAEDTAVYYCARDVTTIVEGFAHWGQGTLVTVSS VL: DIQMTQSPSSLSASVGDRVTITCKASEKVGTYVSWYQQKPGKAPKLLIYGASNRYTGVPSRFSGSRSGTDFTLTISSLQPEDFATYYCGQTYSYPFTFGQGTKVEIK ?
7.36
